Assay Details: self-splicing fitness, log relative to wild type (ln ratio); higher = more splicing; Tetrahymena group I intron in knt gene, E. coli kanamycin selection, DiMSum; sequences stand for … in CUCUCU…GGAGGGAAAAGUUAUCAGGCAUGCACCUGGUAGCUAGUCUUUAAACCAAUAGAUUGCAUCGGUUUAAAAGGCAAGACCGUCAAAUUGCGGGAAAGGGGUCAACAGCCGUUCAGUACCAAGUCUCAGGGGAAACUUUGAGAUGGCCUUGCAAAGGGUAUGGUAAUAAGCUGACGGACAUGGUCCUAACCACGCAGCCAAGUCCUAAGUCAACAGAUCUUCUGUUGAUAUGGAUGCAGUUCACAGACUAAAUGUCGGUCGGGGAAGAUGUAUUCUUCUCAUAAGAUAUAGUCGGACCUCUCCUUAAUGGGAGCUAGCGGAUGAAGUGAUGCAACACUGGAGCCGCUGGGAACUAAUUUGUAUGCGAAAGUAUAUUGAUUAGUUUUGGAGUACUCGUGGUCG;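 note: selection with 25 µg/mL kanamycin versus none on LB agar overnight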
Condition Label: 37 °C
Decide using self-splicing fitness (ln): a value greater than or equal to -2 is Condition met, a smaller one is Condition not met.

> print(dat)
        sequence.content                cat
 1  GGGGAGCAAUAUUACGGUUU      Condition met
 2  UCCUAGCAAUAUUACGAUCG  Condition not met
 3  GUACAGCAAUAUUACGAUAA      Condition met
 4  AGGCAGCAAUAUUACGAAGU      Condition met
 5  GCCAAGCAAUAUUACGAGCU      Condition met
 6  UAUAAGCAAUAUUACGGCUG      Condition met
 7  CUGCAGCAAUAUUACGCUUA  Condition not met
 8  CUCGAGCAAUAUUACGGUAC  Condition not met
 9  GCUAAGCAAUAUUACGGAGG      Condition met
10  AGCUAGCAAUAUUACGUGAA      Condition met
11  UUGGAGCAAUAUUACGUCAU      Condition met
12  CUACAGCAAUAUUACGGGCA  Condition not met
13  AAUCAGCAAUAUUACGAGAA      Condition met
14  AUUUAGCAAUAUUACGUCAU      Condition met
15  GGCAAGCAAUAUUACGCGCU  Condition not met
16  AUAAAGCAAUAUUACGUGGG  Condition not met
17  GAGAAGCAAUAUUACGUAUA      Condition met
18  GUACAGCAAUAUUACGGUUC      Condition met
19  UCAUAGCAAUAUUACGGAGG  Condition not met
20  GAUGAGCAAUAUUACGCCUG  Condition not met
21  GGCGAGCAAUAUUACGCAUG      Condition met
22  CACAAGCAAUAUUACGCUAC  Condition not met
23  GCUCAGCAAUAUUACGAAAU      Condition met
24  UGUGAGCAAUAUUACGCAGU      Condition met
25  CUUGAGCAAUAUUACGCUUU  Condition not met
26  UCCCAGCAAUAUUACGCGCG  Condition not met
27  CUAGAGCAAUAUUACGCACG      Condition met
28  CUUGAGCAAUAUUACGAAAU  Condition not met
29  GUUAAGCAAUAUUACGAGAU      Condition met
30  UUCAAGCAAUAUUACGAAAG  Condition not met
31  GGGAAGCAAUAUUACGCACA      Condition met
32  AGGCAGCAAUAUUACGCAGG      Condition met
33  CCACAGCAAUAUUACGUUCU  Condition not met
